abundance fitness values by entry
B1: Homeobox protein cut-like 1, residues 548 to 629; numbered along this chain, P39880 (parent)
chain: GEEMDTAEIARQVKEQLIKHNIGQRIFGHYVLGLSQGSVSEILARPKPWNKLTVRGKEPFHKMKQFLSDEQNILALRSIQGR

Variants of: B1
Assay: abundance fitness (aPCA) (normalised: wild type 0, dead -1); higher = more abundant; growth selection in yeast, the domain comes from the species named
Conditions: Homo sapiens
I'd appreciate a reply containing only the number, no unit.

Solved cases (6 shown):
Per the record, GEEMDTAEIARQVKEQLIKHNIGQRIFGHYVTGLSQGSVSEILARPKPWNKLTVRGKEPFHKMKQFLSDEQNILALRSIQGR [L32T] has abundance fitness of -0.741

Per the record, GEEMDTAEIARQVKEQLIKHNIGQRIFGHYVLGLSQGSVSIILARPKPWNKLTVRGKEPFHKMKQFLSDEQNILALRSIQGR [E41I] has abundance fitness of -0.477

Per the record, GEEMDTAEIARQVKEQLIKHNIGQRIFGHYVLGLSQGSVSEILARPKPWNKLTVRGKEPFHKMDQFLSDEQNILALRSIQGR [K64D] has abundance fitness of -0.489

Per the record, GEEMDTAEIARQVKEQLIKENIGQRIFGHYVLGLSQGSVSEILARPKPWNKLTVRGKEPFHKMKQFLSDEQNILALRSIQGR [H20E] has abundance fitness of -0.503

Per the record, GEEMDTMEIARQVKEQLIKHNIGQRIFGHYVLGLSQGSVSEILARPKPWNKLTVRGKEPFHKMKQFLSDEQNILALRSIQGR [A7M] has abundance fitness of -0.107

Per the record, GEEMDTAEIARQVKEQLIKHNIGQRIFGHYVLGLSQGSVSEILAQPKPWNKLTVRGKEPFHKMKQFLSDEQNILALRSIQGR [R45Q] has abundance fitness of -0.021

***
Per the record, GEEMDTAEIARQFKEQLIKHNIGQRIFGHYVLGLSQGSVSEILARPKPWNKLTVRGKEPFHKMKQFLSDEQNILALRSIQGR [V13F] has abundance fitness of -0.911

Per the record, GEEMDTAEIARQVKEQLIKHNIGQRIFGHYVLGLSQGSVSEILAIPKPWNKLTVRGKEPFHKMKQFLSDEQNILALRSIQGR [R45I] has abundance fitness of -0.361

Per the record, GEEMDTAEIAKQVKEQLIKHNIGQRIFGHYVLGLSQGSVSEILARPKPWNKLTVRGKEPFHKMKQFLSDEQNILALRSIQGR [R11K] has abundance fitness of 0.069

Per the record, GEEMDTAEIARQVKEQLIKHNIGQRIFGHYVLGLSQGSVSEILARPKPWNRLTVRGKEPFHKMKQFLSDEQNILALRSIQGR [K51R] has abundance fitness of -0.047
